Values were extracted from patent US4091115A.

Examples of compounds with documented LD50 at 48 h follow.
ASSAY_NAME: Acute toxicity in mice
Assay type: in vivo
CONDITIONS_USED: mouse, in vivo, ip, intraperitoneal
Counter-ions that a name gives are not always drawn.
# unit: mg/kg | format: bare number

Record excerpt, results attached:
CN(C)C1CCc2ccccc2CC1 [Example 2, hydrochloride]
100
CN1CCN(C2C=Cc3ccccc3CC2)CC1 (stereo not drawn)
250
CNC1CCc2ccccc2C(c2ccccc2)C1 (stereo not drawn) [Example 9, hydrochloride]
50
CCNC1C=Cc2ccccc2CC1 (stereo not drawn) [Example 12, hydrochloride]
75
CN(C)C1CCc2ccccc2C(c2ccccc2)C1 (single isomer, unassigned) [Example 4, hydrochloride]
50
CNC1C=Cc2ccccc2CC1 (stereo not drawn) [Example 6, hydrochloride]
75
C=CCNC1C=Cc2ccccc2CC1 (stereo not drawn) [Example 14, hydrochloride]
150
CNC1C=Cc2cc(Cl)ccc2CC1.Cl (stereo not drawn)
75

Now let's try a different one.
Would you mind telling me what LD50 at 48 h value was observed for CNC1C=C(c2ccccc2)c2ccccc2CC1 (stereo not drawn) [Example 8, hydrochloride] ?
50
